measurement.notes: In vivo pharmacokinetics, plasma concentration after p.o. dosing
Design: species or system Wistar rats
conditions: male, Wistar, plasma, po; rat, 30 mg/kg p.o., 0.25 hours
Where a name gives a salt, the structure may show the parent alone.
readout.name: concentration at 0.25 h (ng/mL)
Numbers only; they are read as ng/mL.

Exercise: Which concentration at 0.25 h is reported for this compound? NC/C=C(\F)CS(=O)(=O)c1ccccc1 [Compound 1, hydrochloride]
Key: 1060

###

target.or.system: LOXL1 (Homo sapiens (Human), UniProt Q08397)
Sequence (Q08397 96-574, species assumed): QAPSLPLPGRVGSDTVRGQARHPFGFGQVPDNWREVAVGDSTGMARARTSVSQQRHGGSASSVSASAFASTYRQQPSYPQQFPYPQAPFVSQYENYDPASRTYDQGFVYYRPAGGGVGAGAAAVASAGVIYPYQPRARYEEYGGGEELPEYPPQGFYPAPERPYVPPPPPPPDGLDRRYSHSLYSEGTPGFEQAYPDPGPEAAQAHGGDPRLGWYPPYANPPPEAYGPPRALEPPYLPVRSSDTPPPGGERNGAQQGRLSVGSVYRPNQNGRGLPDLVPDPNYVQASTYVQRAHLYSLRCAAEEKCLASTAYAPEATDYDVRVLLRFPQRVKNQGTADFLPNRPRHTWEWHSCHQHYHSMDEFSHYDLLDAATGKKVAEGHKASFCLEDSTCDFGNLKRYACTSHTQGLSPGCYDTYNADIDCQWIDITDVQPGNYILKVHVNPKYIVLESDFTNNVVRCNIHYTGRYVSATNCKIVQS
measurement.notes: Jump dilution experiment, sustained inhibition of LOXL1;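 also: 30× IC50 used only where needed so inhibitor exceeds enzyme concentration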
Type: biochemical
conditions: jump dilution after 40 min at 37 °C with 10× or 30× IC50; vs non-inhibited controls
Protocol: Jump Dilution experiment: The assay was developed using a 96 well format and the starting enzyme concentration was set 100 times higher than for the inhibition studies. […] After the incubation, the mixture was diluted 50× in assay buffer, followed by a further 2× dilution in Amplex Red-horseradish peroxidase-putrescine reaction mix (same as per the inhibition studies) prior to the fluorescent measurement. […]
Structures can show the parent of a compound that is named as a salt.
readout.name: LOXL1 - Recovery of activity. (%)
Numbers only; they are read as %.

1. CC(C)N(C(C)C)S(=O)(=O)c1ccc(COc2ccccc2S(=O)(=O)C/C(F)=C/CN)cc1 [Compound 11, hydrochloride]
10.2
2. NC/C=C(\F)CS(=O)(=O)c1cccc(F)c1 [Compound 38, hydrochloride]
1.6
3. NC/C=C(\F)CS(=O)(=O)c1ccccc1C(=O)NC12CC3CC(CC(C3)C1)C2 [Compound 12, hydrochloride]
2.6

Okay, now this compound:
Exercise: Which LOXL1 - Recovery of activity. (%) is reported for this compound? NC/C=C(\F)CS(=O)(=O)c1cccnc1 [Compound 31, dihydrochloride]
Key: 8.2

###

# concentration at 0.5 h values compiled below
measurement.notes: In vivo pharmacokinetics, plasma concentration after p.o. dosing
Design: species or system Wistar rats
conditions: male, Wistar, plasma, po; rat, 30 mg/kg p.o., 0.50 hours
Counter-ions that a name gives are not always drawn.
Answer with the value and then the unit.

Exercise: Which concentration at 0.5 h is reported for this molecule? NC/C=C(\F)CS(=O)(=O)c1ccccc1 [Compound 1, hydrochloride]
Key: 2090 ng/mL

Exercise: Same read-out for NC/C=C(\F)CS(=O)(=O)c1cccc2cccnc12 [Compound 33, dihydrochloride] ?
Key: 3710 ng/mL

###

target.or.system: LOXL2 (Homo sapiens (Human), UniProt Q9Y4K0)
Sequence (Q9Y4K0 26-774): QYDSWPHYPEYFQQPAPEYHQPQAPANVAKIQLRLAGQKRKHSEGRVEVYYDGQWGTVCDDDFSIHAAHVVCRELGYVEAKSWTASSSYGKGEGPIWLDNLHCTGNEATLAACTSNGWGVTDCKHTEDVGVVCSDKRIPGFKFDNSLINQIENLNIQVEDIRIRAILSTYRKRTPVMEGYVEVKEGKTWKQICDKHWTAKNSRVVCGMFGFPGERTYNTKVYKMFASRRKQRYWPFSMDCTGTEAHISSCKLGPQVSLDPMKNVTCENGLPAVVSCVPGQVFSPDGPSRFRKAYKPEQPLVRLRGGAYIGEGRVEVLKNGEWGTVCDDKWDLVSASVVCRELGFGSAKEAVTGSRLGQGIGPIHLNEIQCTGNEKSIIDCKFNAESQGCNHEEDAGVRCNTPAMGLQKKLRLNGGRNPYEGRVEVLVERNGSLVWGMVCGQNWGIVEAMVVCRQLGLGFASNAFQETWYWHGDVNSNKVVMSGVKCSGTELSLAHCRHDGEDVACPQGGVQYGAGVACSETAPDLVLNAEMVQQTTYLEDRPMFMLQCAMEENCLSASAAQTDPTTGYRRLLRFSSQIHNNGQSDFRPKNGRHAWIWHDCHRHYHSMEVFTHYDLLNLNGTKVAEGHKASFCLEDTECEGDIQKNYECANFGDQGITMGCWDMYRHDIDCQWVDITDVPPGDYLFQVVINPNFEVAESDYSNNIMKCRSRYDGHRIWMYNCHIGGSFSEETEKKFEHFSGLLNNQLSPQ
measurement.notes: Jump dilution experiment, sustained inhibition of LOXL2;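 also: 30× IC50 used only where needed so inhibitor exceeds enzyme concentration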
Assay type: biochemical
conditions: jump dilution after 40 min at 37 °C with 10× or 30× IC50; vs non-inhibited controls
Counter-ions that a name gives are not always drawn.
Please use 1 (yes) whenever LOXL2 - Recovery of activity. (%) is not below 10%, and 0 (no) whenever it is.

Use the examples below as a reference point.
1) NC/C=C(\F)CS(=O)(=O)c1cccc2cccnc12 [Compound 33, dihydrochloride]
0 (no)
2) CN(C)S(=O)(=O)c1ccc(Oc2cccc(S(=O)(=O)C/C(F)=C/CN)c2)cc1 [Compound 16, hydrochloride]
1 (yes)
3) NC/C=C(\F)CS(=O)(=O)c1ccccc1C(=O)NC12CC3CC(CC(C3)C1)C2 [Compound 12, hydrochloride]
0 (no)

Exercise: Kindly determine if LOXL2 - Recovery of activity. (%) recorded for NC/C=C(\F)CS(=O)(=O)c1ccccc1 [Compound 1, hydrochloride] is above or exactly 10%.
Key: 0 (no)

Exercise: Same read-out for NC/C=C(\F)CS(=O)(=O)c1ccc(C(=O)NC23CC4CC(CC(C4)C2)C3)cc1 [Compound 4, hydrochloride] ?
Key: 1 (yes)

###

target.or.system: UniProt Q9Y4K0
measurement.notes: LOXL2 inhibition, Amplex Red oxidation assay
Assay type: biochemical
conditions: 30 min preincubation at 37 °C, putrescine substrate
pIC50: −log10 of the molar value. Counter-ions that a name gives are not always drawn.
# pIC50 values compiled below

1) CC(C)N(C(C)C)S(=O)(=O)c1ccc(COc2ccccc2S(=O)(=O)C/C(F)=C/CN)cc1 [Compound 11, hydrochloride]
> 6.00

Exercise: Tell me reported pIC50 for Cc1ccncc1S(=O)(=O)C/C(F)=C/CN [Compound 48, dihydrochloride] , tested with UniProt Q9Y4K0.
Key: > 6.00

Exercise: Same read-out for NC/C=C(\F)CS(=O)(=O)c1ccccn1 [Compound 30, dihydrochloride] ?
Key: > 6.00

Exercise: Same read-out for Cc1cccc(S(=O)(=O)C/C(F)=C/CN)n1 [Compound 36, dihydrochloride] ?
Key: > 6.00

###

target.or.system: Recombinant human MAO-B (Homo sapiens (Human))
Sequence (P27338 whole entry): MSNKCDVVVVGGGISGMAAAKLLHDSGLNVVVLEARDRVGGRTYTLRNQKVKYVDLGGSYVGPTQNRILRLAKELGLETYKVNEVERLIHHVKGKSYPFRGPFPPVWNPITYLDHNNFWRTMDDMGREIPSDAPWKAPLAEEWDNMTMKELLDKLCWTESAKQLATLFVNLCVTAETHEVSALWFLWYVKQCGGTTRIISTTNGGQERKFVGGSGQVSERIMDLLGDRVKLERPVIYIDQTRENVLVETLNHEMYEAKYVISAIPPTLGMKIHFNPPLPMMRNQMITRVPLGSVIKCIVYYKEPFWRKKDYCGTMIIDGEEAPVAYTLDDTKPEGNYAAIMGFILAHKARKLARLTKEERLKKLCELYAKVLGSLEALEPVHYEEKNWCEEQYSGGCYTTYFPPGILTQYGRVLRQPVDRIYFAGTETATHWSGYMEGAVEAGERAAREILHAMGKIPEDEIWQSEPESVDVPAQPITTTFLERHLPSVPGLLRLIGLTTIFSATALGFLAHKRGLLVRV
measurement.notes: Inhibition of human recombinant MAO-B
conditions: benzylamine 100 μM
Structures can show the parent of a compound that is named as a salt.
readout.name: IC50

Exercise: Which IC50 is reported for this compound? NC/C=C(\F)CS(=O)(=O)c1ccccc1Cl [Compound 19, hydrochloride]
Key: > 30 µM

Exercise: Same read-out for CN(C)S(=O)(=O)c1ccc(COc2ccc(S(=O)(=O)C/C(F)=C/CN)cc2)cc1 [Compound 10, hydrochloride] ?
Key: > 30 µM

Exercise: Same read-out for NC/C=C(\F)CS(=O)(=O)c1cc(C(F)(F)F)cc(C(F)(F)F)c1 [Compound 2, hydrochloride] ?
Key: > 30 µM

Exercise: Same read-out for NC/C=C(\F)CS(=O)(=O)c1ccccc1OCc1ccc(S(N)(=O)=O)cc1 [Compound 8, hydrochloride] ?
Key: > 30 µM

Exercise: Same read-out for CC(C)N(C(C)C)S(=O)(=O)c1ccc(NC(=O)c2ccccc2S(=O)(=O)C/C(F)=C/CN)cc1 [Compound 15, hydrochloride] ?
Key: > 30 µM

Exercise: Same read-out for CN(C)S(=O)(=O)c1ccc(COc2ccccc2S(=O)(=O)C/C(F)=C/CN)cc1 [Compound 5, hydrochloride] ?
Key: > 30 µM

Exercise: Same read-out for NC/C=C(\F)CS(=O)(=O)c1cccc2cccnc12 [Compound 33, dihydrochloride] ?
Key: > 30 µM

Exercise: Same read-out for CC(C)N(C(C)C)S(=O)(=O)c1ccc(COc2ccccc2S(=O)(=O)C/C(F)=C/CN)cc1 [Compound 11, hydrochloride] ?
Key: > 30 µM

Exercise: Same read-out for CS(=O)(=O)c1ccc(S(=O)(=O)C/C(F)=C/CN)cc1 ?
Key: > 30 µM

###

target.or.system: LOXL2 (Homo sapiens (Human), UniProt Q9Y4K0)
pIC50: −log10 of the molar value. Where a name gives a salt, the structure may show the parent alone.
# pIC50 values compiled below

# count of solved cases: 3
1. NC/C=C(\F)CS(=O)(=O)c1cccc(Cl)c1 [Compound 26, hydrochloride]
> 6.00
2. CN(C)S(=O)(=O)c1ccc(COc2cccc(S(=O)(=O)C/C(F)=C/CN)c2)cc1 [Compound 9, hydrochloride]
> 6.00
3. CC(C)N(C(C)C)S(=O)(=O)c1ccc(NC(=O)c2ccccc2S(=O)(=O)C/C(F)=C/CN)cc1 [Compound 15, hydrochloride]
> 6.00

Okay, now this compound:
Exercise: Tell me reported pIC50 for Cc1ccc(S(=O)(=O)C/C(F)=C/CN)cn1 [Compound 46, dihydrochloride] , tested with LOXL2 (Homo sapiens (Human), UniProt Q9Y4K0).
Key: > 6.00

###

measurement.notes: In vivo pharmacokinetics, plasma concentration after p.o. dosing
Set-up: species or system Wistar rats
conditions: male, Wistar, plasma, po; rat, 10 mg/kg p.o., 0.25 hours
Counter-ions that a name gives are not always drawn.
readout.name: concentration at 0.25 h (ng/mL)
Numbers only; they are read as ng/mL.

Exercise: Which concentration at 0.25 h is reported for this compound? NC/C=C(\F)CS(=O)(=O)c1ccccc1 [Compound 1, hydrochloride]
Key: 379

###

# IC50 values compiled below
target.or.system: Human recombinant SSAO/VAP-1 (Homo sapiens (Human), UniProt Q16853)
Sequence (Q16853 34-763): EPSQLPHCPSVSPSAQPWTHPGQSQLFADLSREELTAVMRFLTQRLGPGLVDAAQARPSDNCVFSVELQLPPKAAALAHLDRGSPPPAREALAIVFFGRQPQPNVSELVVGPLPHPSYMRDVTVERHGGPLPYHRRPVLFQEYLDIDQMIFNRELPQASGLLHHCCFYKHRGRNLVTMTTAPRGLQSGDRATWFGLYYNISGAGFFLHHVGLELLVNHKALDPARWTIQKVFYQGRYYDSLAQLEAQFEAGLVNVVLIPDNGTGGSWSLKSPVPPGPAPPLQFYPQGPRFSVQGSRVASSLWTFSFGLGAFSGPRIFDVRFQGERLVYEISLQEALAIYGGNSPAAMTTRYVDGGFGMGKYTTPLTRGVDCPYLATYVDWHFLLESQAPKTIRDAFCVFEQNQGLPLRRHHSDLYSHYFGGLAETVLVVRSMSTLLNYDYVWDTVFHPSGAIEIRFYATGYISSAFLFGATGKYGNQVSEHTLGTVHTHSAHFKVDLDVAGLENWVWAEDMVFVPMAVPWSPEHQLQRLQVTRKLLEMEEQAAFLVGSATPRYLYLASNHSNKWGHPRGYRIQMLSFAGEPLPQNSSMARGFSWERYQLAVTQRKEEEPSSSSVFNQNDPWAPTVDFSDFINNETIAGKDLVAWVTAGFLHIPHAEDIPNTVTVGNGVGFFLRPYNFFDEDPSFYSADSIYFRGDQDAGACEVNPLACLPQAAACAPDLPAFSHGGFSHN
measurement.notes: Inhibition of human recombinant SSAO/VAP-1
Format: biochemical
conditions: 30 min preincubation at 37 °C, benzylamine 600 μM; read-out: SSAO/VAP-1 Activity IC50
Protocol: Human recombinant SSAO/VAP-1 amine oxidase activity was determined using the coupled colorimetric method as described for monoamine oxidase, copper-containing amine oxidases and related enzymes (Holt A. and Palcic M., A peroxidase-coupled continuous absorbance plate-reader assay for flavin monoamine oxidases, copper-containing amine oxidases and related enzymes. Nat Protoc 2006; 1: 2498-2505). […]
Where a name gives a salt, the structure may show the parent alone.

1. NC/C=C(\F)CS(=O)(=O)c1ccccc1OCc1ccccc1 [Compound 7, hydrochloride]
> 30 µM

Exercise: Which IC50 is reported for this compound? NC/C=C(\F)CS(=O)(=O)c1cc(Cl)cc(Cl)c1 [Compound 28, hydrochloride]
Key: > 30 µM

Exercise: Same read-out for CS(=O)(=O)c1ccc(S(=O)(=O)C/C(F)=C/CN)cc1 ?
Key: > 30 µM

Exercise: Same read-out for NC/C=C(\F)CS(=O)(=O)c1ccccc1OCc1ccc(S(N)(=O)=O)cc1 [Compound 8, hydrochloride] ?
Key: > 30 µM
